The reported measurements were obtained from ChEMBL document CHEMBL1146878.

EXPERIMENTAL_TARGET: Glutamate receptor 2 (Homo sapiens, UniProt P42262)
Sequence (P42262 whole entry): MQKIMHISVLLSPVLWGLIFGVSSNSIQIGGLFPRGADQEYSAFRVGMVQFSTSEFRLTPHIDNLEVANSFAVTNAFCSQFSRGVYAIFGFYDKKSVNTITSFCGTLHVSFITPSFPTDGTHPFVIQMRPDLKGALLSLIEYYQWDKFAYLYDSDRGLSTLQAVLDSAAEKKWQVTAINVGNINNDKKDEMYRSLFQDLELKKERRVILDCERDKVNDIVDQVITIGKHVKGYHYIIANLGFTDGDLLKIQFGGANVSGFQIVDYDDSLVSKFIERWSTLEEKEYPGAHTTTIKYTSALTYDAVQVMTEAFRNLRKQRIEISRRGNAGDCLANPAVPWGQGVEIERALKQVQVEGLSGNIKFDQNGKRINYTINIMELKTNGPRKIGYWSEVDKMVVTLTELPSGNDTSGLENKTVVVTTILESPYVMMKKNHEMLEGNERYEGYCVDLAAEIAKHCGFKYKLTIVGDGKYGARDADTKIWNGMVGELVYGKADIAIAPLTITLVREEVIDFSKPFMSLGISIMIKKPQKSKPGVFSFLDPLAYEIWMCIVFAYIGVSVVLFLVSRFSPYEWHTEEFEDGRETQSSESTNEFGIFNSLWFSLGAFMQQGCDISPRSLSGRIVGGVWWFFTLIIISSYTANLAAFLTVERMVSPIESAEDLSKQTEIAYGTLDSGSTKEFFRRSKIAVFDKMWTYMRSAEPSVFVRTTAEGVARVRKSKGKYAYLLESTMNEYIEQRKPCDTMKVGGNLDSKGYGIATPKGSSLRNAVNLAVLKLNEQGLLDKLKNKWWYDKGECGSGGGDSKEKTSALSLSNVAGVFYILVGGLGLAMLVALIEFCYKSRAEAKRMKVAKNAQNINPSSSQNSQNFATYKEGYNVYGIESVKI
ASSAY_COMMENT: Activity against human GLUR2 flop expressed in HEK293 cells assessed as glutamate-stimulated calcium influx by FLIPR assay
Assay type: functional, cell-based
Under this convention, class 1 denotes EC50 strictly below 2000 nM and class 0 denotes EC50 at or above 2000 nM.

Please let me know if CC(C)(C)c1ccc(-c2c(C(=O)O)sc(N3CCCC3)c2C#N)cc1 shows EC50 below 2000 nM.
class 0

# check: EC50 < 2000 nM for CC(C)(C)c1ccc(-c2c(C(=O)O)sc(S(C)(=O)=O)c2C#N)cc1
class 1

# TODO verify EC50 < 2000 nM strictly for this compound: CSc1c(C#N)c(-c2ccc(C(C)(C)C)cc2)c(C(=O)O)n1C
class 1

Strictly below 2000 nM in EC50? CC(CNS(=O)(=O)C(C)C)c1ccc(-c2ccc(C#N)cc2)cc1 (stereo unspecified)
class 1

Could you please tell me whether EC50 recorded for CCc1sc(C(=O)O)c(-c2ccc(C(C)(C)C)cc2)c1C#N is less than 2000 nM?
class 1

Say whether its EC50 is strictly beneath 2000 nM. Entry: CN(C)c1sc(C(=O)O)c(-c2ccc(C(C)(C)C)cc2)c1C#N
class 0

====

EXPERIMENTAL_TARGET: Glutamate receptor 2 (Homo sapiens, UniProt P42262)
ASSAY_COMMENT: Activity against human GLUR2 flop expressed in HEK293 cells assessed as glutamate-stimulated calcium influx by FLIPR assay
Format: functional, cell-based
pEC50: −log10 of the molar value.
I'd appreciate it if you could supply pEC50 values for the items below.

Record CC(C)(C)c1ccc(-c2c(C(=O)O)sc(C(F)(F)F)c2C#N)cc1 . Reported pEC50: 6.64

pEC50 measured on CC(C)(C)c1ccc(-c2c(C#N)csc2C(=O)O)cc1 = < 5.52

Reported pEC50 of CCOC(=O)c1sc(SC)c(C#N)c1-c1ccc(C(C)(C)C)cc1 : < 5.52

====

Give measured EC50 for each item. Keep answers brief.
EXPERIMENTAL_TARGET: Glutamate receptor 4 (Homo sapiens, UniProt P48058)
Sequence (P48058 whole entry): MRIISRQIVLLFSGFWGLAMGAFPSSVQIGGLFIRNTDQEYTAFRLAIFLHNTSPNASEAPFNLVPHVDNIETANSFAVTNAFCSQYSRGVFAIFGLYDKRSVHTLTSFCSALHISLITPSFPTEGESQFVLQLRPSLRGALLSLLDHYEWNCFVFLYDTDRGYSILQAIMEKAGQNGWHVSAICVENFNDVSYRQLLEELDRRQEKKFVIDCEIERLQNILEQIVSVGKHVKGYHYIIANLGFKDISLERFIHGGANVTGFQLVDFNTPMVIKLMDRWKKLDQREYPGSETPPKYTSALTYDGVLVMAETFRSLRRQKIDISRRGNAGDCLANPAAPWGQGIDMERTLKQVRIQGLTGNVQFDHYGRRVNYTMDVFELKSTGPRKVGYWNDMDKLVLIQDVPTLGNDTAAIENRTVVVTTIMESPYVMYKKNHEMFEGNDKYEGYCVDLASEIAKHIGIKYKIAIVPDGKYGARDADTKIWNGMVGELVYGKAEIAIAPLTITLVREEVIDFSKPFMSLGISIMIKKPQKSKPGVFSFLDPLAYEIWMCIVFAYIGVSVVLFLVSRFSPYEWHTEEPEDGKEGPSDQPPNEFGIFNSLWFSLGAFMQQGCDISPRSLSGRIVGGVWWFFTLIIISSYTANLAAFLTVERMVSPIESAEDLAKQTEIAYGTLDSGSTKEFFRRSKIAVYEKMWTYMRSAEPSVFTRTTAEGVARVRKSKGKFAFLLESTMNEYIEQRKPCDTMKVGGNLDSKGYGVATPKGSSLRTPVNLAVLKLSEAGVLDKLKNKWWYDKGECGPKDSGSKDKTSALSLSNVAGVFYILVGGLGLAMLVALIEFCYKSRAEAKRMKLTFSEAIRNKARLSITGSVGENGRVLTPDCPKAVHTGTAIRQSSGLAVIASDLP
ASSAY_COMMENT: Activity against human GLUR4 flip expressed in HEK293 cells assessed as glutamate-stimulated calcium influx by FLIPR assay
Format: functional, cell-based
Please give a number only; it is taken to be in nM.

The reported EC50 value, Glutamate receptor 4 (Homo sapiens, UniProt P48058), for CC(C)(C)c1ccc(-c2c(C(=O)O)sc(N3CCCC3)c2C#N)cc1 reads 1010

Measured EC50 (Glutamate receptor 4 (Homo sapiens, UniProt P48058)), entry CSc1sc(C(=O)O)c(-c2ccc(-c3ccccc3)cc2)c1C#N : 795

Query CSc1oc(C(=O)O)c(-c2ccc(C(C)(C)C)cc2)c1C#N on Glutamate receptor 4 (Homo sapiens, UniProt P48058); EC50 returned: 1980

CC(CNS(=O)(=O)C(C)C)c1ccc(-c2ccc(C#N)cc2)cc1 (stereo unspecified) tested on Glutamate receptor 4 (Homo sapiens, UniProt P48058) gave EC50: 420

# EC50 measured on Glutamate receptor 4 (Homo sapiens, UniProt P48058) for item CC(C)(C)c1ccc(-c2c(C(=O)O)sc(S(C)(=O)=O)c2C#N)cc1 = 629

Query CCCSc1sc(C(=O)O)c(-c2ccc(C(C)(C)C)cc2)c1C#N on Glutamate receptor 4 (Homo sapiens, UniProt P48058); EC50 returned: 2890

Measured on Glutamate receptor 4 (Homo sapiens, UniProt P48058), CSc1c(C#N)c(-c2ccc(C(C)(C)C)cc2)c(C(=O)O)n1C has a documented EC50 of 554

Record CC(C)(C)c1ccc(-c2c(C(=O)O)sc(C(F)(F)F)c2C#N)cc1 ; system Glutamate receptor 4 (Homo sapiens, UniProt P48058); EC50 = 273

====

EXPERIMENTAL_TARGET: UniProtKB P48058
ASSAY_COMMENT: Activity against human GLUR4 flop expressed in HEK293 cells assessed as glutamate-stimulated calcium influx by FLIPR assay
Type: functional, cell-based
Would you kindly list EC50 for each of these compounds?

# EC50 (compound: CC(C)Sc1sc(C(=O)O)c(-c2ccc(C(C)(C)C)cc2)c1C#N ) is > 3 µM

The compound listed as CC(C)(C)c1ccc(-c2c(C#N)csc2C(=O)O)cc1 shows EC50 equal to > 3 µM

Just so you know, measured EC50 for CC(C)(C)c1ccc(-c2c(C(=O)O)sc(S(C)(=O)=O)c2C#N)cc1 came out at > 3 µM

====

EXPERIMENTAL_TARGET: Glutamate receptor 4 (Homo sapiens, UniProt P48058)
ASSAY_COMMENT: Activity against human GLUR4 flip expressed in HEK293 cells assessed as glutamate-stimulated calcium influx by FLIPR assay
Assay type: functional, cell-based
READOUT: EC50

Note to self: EC50 of CC(C)(C)c1ccc(-c2c(C#N)csc2C(=O)O)cc1 with Glutamate receptor 4 (Homo sapiens, UniProt P48058) was > 3 µM

Form field EC50 for item CCOC(=O)c1sc(SC)c(C#N)c1-c1ccc(C(C)(C)C)cc1 on Glutamate receptor 4 (Homo sapiens, UniProt P48058): > 3 µM

Entry CC(C)(C)c1ccc(-c2c(C(=O)O)sc(Sc3ccccc3)c2C#N)cc1 , Glutamate receptor 4 (Homo sapiens, UniProt P48058) data, EC50 value: > 3 µM
